Attribute: IC50
Tested on: Plasmodium falciparum
Assay: Antimalarial activity against chloroquine-sensitive Plasmodium falciparum D6 after 48 hrs by [3H]hypoxanthine incorporation assay
Assay type: functional, organism-based
measure: IC50 (nM)

[[record]]
compound = "CC[C@H]1OC(=O)[C@H](C)[C@@H](O[C@H]2C[C@@](C)(OC)[C@@H](O)[C@H](C)O2)[C@H](C)[C@@H](O[C@@H]2O[C@H](C)C[C@H](N(C)C)[C@H]2O)[C@](C)(O)C[C@@H](C)CN(CCCNC(=S)Nc2cccc3ccccc23)[C@H](C)[C@@H](O)[C@]1(C)O"
measure = "IC50"
unit_string = "nM"
endpoint_result = 116

[[record]]
compound = "CC[C@H]1OC(=O)[C@H](C)[C@@H](O[C@H]2C[C@@](C)(OC)[C@@H](O)[C@H](C)O2)[C@H](C)[C@@H](O[C@@H]2O[C@H](C)C[C@H](N(C)C)[C@H]2O)[C@](C)(O)C[C@@H](C)CN(CCNC(=O)Nc2cccc3ccccc23)[C@H](C)[C@@H](O)[C@]1(C)O"
measure = "IC50"
unit_string = "nM"
endpoint_result = 142

